Data provenance: patent US20240165196A1

system: E. coli NDM ? a; experiment: antimicrobial susceptibility testing, VITEK 2 AST Cards; format: cell-based; note: key: S, susceptible; I, intermediate; R, resistant
parameter: Interpretation

>>> df
                                   compound       measuredon  datavalue
0  O=C1CN(/N=C/c2ccc([N+](=O)[O-])o2)C(=O)N1 [Nitrofuran ?]  E. coli NDM ? a          R
1  CO/N=C(\C(=O)N[C@@H]1C(=O)N2C(C(=O)[O-])=C(C[N+]3(C)CCCC3)CS[C@H]12)c1csc(N)n1 [C ? ime]  E. coli NDM ? a          R
2  CO/N=C(\C(=O)N[C@@H]1C(=O)N2C(C(=O)O)=C(COC(C)=O)CS[C@H]12)c1csc(N)n1 [Cef ? axime]  E. coli NDM ? a          R

---

system: E. coli NDM ? a; experiment: antimicrobial susceptibility testing, VITEK 2 AST Cards; assay type: cell-based; note: key: S, susceptible; I, intermediate; R, resistant

compound	measuredOn	Interpretation
C[C@@H](O)[C@H]1C(=O)N2C(C(=O)O)=C(S[C@@H]3CN[C@H](C(=O)N(C)C)C3)[C@H](C)[C@H]12	E. coli NDM ? a	R
NCC[C@H](O)C(=O)N[C@@H]1C[C@H](N)[C@@H](O[C@H]2O[C@H](CN)[C@@H](O)[C@H](O)[C@H]2O)[C@H](O)[C@H]1O[C@H]1O[C@H](CO)[C@@H](O)[C@H](N)[C@H]1O	E. coli NDM ? a	S
CC1(C)S[C@@H]2[C@H](NC(=O)[C@H](N)c3ccccc3)C(=O)N2[C@H]1C(=O)O	E. coli NDM ? a	R
CO/N=C(\C(=O)N[C@@H]1C(=O)N2C(C(=O)O)=C(COC(N)=O)CS[C@H]12)c1ccco1	E. coli NDM ? a	R
CO/N=C(\C(=O)N[C@@H]1C(=O)N2C(C(=O)OC(C)OC(C)=O)=C(COC(N)=O)CS[C@H]12)c1ccco1 (stereo partly drawn)	E. coli NDM ? a	R
CC(C)(O/N=C(\C(=O)N[C@@H]1C(=O)N2C(C(=O)[O-])=C(C[n+]3ccccc3)CS[C@H]12)c1csc(N)n1)C(=O)O	E. coli NDM ? a	R

---

test system: E. coli TEM-148

compound	MIC
NC[C@H]1O[C@H](O[C@H]2[C@H](O)[C@@H](O[C@H]3O[C@H](CO)[C@@H](O)[C@H](N)[C@H]3O)[C@H](N)C[C@@H]2N)[C@H](N)C[C@@H]1O [Tobramycin]	≤ 1 µg/mL
CO/N=C(\C(=O)N[C@@H]1C(=O)N2C(C(=O)O)=C(COC(N)=O)CS[C@H]12)c1ccco1 [C ? xime]	≥ 64 µg/mL
CO/N=C(\C(=O)N[C@@H]1C(=O)N2C(C(=O)OC(C)OC(C)=O)=C(COC(N)=O)CS[C@H]12)c1ccco1 (stereo partly drawn)	≥ 64 µg/mL

---

tested on: E. coli TEM-30; format: cell-based; for Interpretation: key: S, susceptible; I, intermediate; R, resistant
parameter: Interpretation

>>> print(df.to_string())
                                   molecule      measuredon  datavalue
0  C[C@@H](O)[C@H]1C(=O)N2C(C(=O)O)=C(S[C@@H]3CN[C@H](C(=O)N(C)C)C3)[C@H](C)[C@H]12  E. coli TEM-30          S
1  CO/N=C(\C(=O)N[C@@H]1C(=O)N2C(C(=O)O)=C(COC(C)=O)CS[C@H]12)c1csc(N)n1  E. coli TEM-30          R
2  CO/N=C(\C(=O)N[C@@H]1C(=O)N2C(C(=O)O)=C(COC(N)=O)CS[C@H]12)c1ccco1  E. coli TEM-30          R
3  CO/N=C(\C(=O)N[C@@H]1C(=O)N2C(C(=O)OC(C)OC(C)=O)=C(COC(N)=O)CS[C@H]12)c1ccco1 (some centres unmarked)  E. coli TEM-30          R
4  O=C1CN(/N=C/c2ccc([N+](=O)[O-])o2)C(=O)N1  E. coli TEM-30          S

---

tested on: E. coli TEM-104; assay: checkerboard assay (FICI), peptide versus penicillin G; assay type: cell-based; conditions: strain with TEM; FICI below 0.5 = synergy
parameter: synergy with penicillin G (FICI)

>>> df
                                  substance                         parameter  datavalue
0  RLTAFLRQRRPRLTAFLHNRR (non-natural molecule) [TEM3.3]  synergy with penicillin G (FICI)    synergy
1     Ac-RLTAFLHNRRPRLTAFLRQRR-NH2 [TEM3.2]  synergy with penicillin G (FICI)    synergy

---

// MIC collected for E. coli TEM-30
parameter: MIC

In [3]: df
Out[3]:
                                   compound      measuredon     datavalue
0  C[C@@H](O)[C@H]1C(=O)N2C(C(=O)O)=C(S[C@@H]3CN[C@H](C(=O)N(C)C)C3)[C@H](C)[C@H]12 [Meropen ? m]  E. coli TEM-30  ≤ 0.25 µg/mL
1  CO/N=C(\C(=O)N[C@@H]1C(=O)N2C(C(=O)[O-])=C(C[N+]3(C)CCCC3)CS[C@H]12)c1csc(N)n1 [C ? ime]  E. coli TEM-30     ≤ 1 µg/mL
2  CO/N=C(\C(=O)N[C@@H]1C(=O)N2C(C(=O)O)=C(COC(N)=O)CS[C@H]12)c1ccco1 [C ? xime]  E. coli TEM-30    ≥ 64 µg/mL
3  CO/N=C(\C(=O)N[C@@H]1C(=O)N2C(C(=O)O)=C(COC(C)=O)CS[C@H]12)c1csc(N)n1 [Cef ? axime]  E. coli TEM-30       4 µg/mL
4  CC(C)(O/N=C(\C(=O)N[C@@H]1C(=O)N2C(C(=O)[O-])=C(C[n+]3ccccc3)CS[C@H]12)c1csc(N)n1)C(=O)O [C ? dime]  E. coli TEM-30     ≤ 1 µg/mL
5  CO/N=C(\C(=O)N[C@@H]1C(=O)N2C(C(=O)OC(C)OC(C)=O)=C(COC(N)=O)CS[C@H]12)c1ccco1 (stereo partly shown)  E. coli TEM-30    ≥ 64 µg/mL
6  O=C1CN(/N=C/c2ccc([N+](=O)[O-])o2)C(=O)N1 [Nitrofuran ?]  E. coli TEM-30      32 µg/mL

---

tested on: E. coli TEM-148
Each entry below carries its reported MIC.
parameter: MIC (µg/mL)

In [3]: df
Out[3]:
                                   compound  unittext  readingqualifier  datavalue
0  CO/N=C(\C(=O)N[C@@H]1C(=O)N2C(C(=O)[O-])=C(C[N+]3(C)CCCC3)CS[C@H]12)c1csc(N)n1 [C ? ime]     µg/mL                 =          2
1  CO/N=C(\C(=O)N[C@@H]1C(=O)N2C(C(=O)O)=C(COC(C)=O)CS[C@H]12)c1csc(N)n1 [Cef ? axime]     µg/mL                 =         16
2  C[C@@H](O)[C@H]1C(=O)N2C(C(=O)O)=C(S[C@@H]3CN[C@H](C(=O)N(C)C)C3)[C@H](C)[C@H]12 [Meropen ? m]     µg/mL                 ≤       0.25
3  O=C1CN(/N=C/c2ccc([N+](=O)[O-])o2)C(=O)N1 [Nitrofuran ?]     µg/mL                 =         32

---

system: E. coli strain UZ_TEM104; type: cell-based; conditions: peptide alone
parameter: MIC peptide

In [3]: df
Out[3]:
                               substance    parameter   datavalue
0  Ac-RIVVIYTTRRPRIVVIYTTRR-NH2 [TEM7.0]  MIC peptide  >100 µg/mL
1    Ac-RLLTLASRRPRLLTLASRR-NH2 [TEM4.0]  MIC peptide   100 µg/mL
2  Ac-RLLLTTIGRRPRLLLTTIGRR-NH2 [TEM2.0]  MIC peptide  >100 µg/mL
3    Ac-RAGWFIARRPRAGWFIARR-NH2 [TEM5.0]  MIC peptide   100 µg/mL
4  Ac-RGIIAALGRRPRGIIAALGRR-NH2 [TEM6.0]  MIC peptide  >100 µg/mL
5  Ac-RLTAFLHNRRPRLTAFLHNRR-NH2 [TEM3.0]  MIC peptide  >100 µg/mL

---

system: TEM beta-lactamase in E. coli UZ_TEM104; test: western blot of inclusion body (IB) fraction for TEM; type: cell-based; conditions: 12 μM peptide in PBS, 120 min
parameter: enrichment of the TEM protein in inclusion bodies (western blot)

In [3]: df
Out[3]:
                                  substance                               measuredon  datavalue
0  RLTAFLRQRRPRLTAFLRQRR (non-natural molecule) [TEM3.1]  TEM beta-lactamase in E. coli UZ_TEM104        not
